target: pY641-STAT6 in PBMC (Homo sapiens, UniProt P42226); construct: Cryopreserved Peripheral Blood Mononuclear Cells (PBMC) are from AllCells; host or cells: cryopreserved PBMC; test: MSD-pSTAT-PBMC Assay (pSTAT6, IL-4 stimulated); type: cell-based; conditions: PBMC, compound 3 hrs, then 1 ng/mL IL-4 for 10 min; Table 115; read-out: STAT6
Sequence (P42226 whole entry): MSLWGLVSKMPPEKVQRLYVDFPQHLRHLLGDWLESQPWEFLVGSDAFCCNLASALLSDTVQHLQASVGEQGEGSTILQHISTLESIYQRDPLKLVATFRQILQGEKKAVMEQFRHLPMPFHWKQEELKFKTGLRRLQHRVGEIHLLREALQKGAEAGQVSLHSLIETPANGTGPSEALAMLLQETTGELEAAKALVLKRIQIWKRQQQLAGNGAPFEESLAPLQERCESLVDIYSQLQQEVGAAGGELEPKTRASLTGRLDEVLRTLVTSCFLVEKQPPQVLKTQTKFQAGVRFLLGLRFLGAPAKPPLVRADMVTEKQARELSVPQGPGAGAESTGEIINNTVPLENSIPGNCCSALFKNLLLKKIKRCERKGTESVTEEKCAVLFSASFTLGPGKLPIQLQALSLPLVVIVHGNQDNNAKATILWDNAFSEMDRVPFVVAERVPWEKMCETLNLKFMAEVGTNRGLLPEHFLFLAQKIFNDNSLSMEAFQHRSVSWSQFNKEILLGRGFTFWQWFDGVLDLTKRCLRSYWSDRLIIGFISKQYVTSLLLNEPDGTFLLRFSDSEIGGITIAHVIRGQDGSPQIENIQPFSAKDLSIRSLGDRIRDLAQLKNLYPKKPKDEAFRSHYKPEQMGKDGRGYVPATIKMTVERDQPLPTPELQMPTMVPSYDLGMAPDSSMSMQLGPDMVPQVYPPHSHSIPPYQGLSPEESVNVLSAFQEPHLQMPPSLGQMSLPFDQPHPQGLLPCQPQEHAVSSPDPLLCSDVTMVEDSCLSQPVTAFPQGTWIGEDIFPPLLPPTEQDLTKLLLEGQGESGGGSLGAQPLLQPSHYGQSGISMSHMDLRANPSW
pIC50: −log10 of the molar value.
// pIC50 lookup, one value per entry

Example entries begin here.
- Compound: "CC(C)(C)C(=O)SCCOP(=O)(OCCSC(=O)C(C)(C)C)C(F)(F)c1ccc2sc(C(=O)N[C@H]3CCC[C@H]4CC[C@@H](C(=O)N5CC(c6ncccn6)C5)N4C3=O)cc2c1"
  pIC50: "< 5.52"
- Compound: "CCCC(=O)SCCOP(=O)(OCCSC(=O)CCC)C(F)(F)c1ccc2sc(C(=O)N[C@H]3CCC[C@H]4CC[C@@H](C(=O)N5CC(c6ncccn6)C5)N4C3=O)cc2c1"
  pIC50: "6.00 to 7.00"
- Compound: "CC(C)CC(=O)SCCOP(=O)(OCCSC(=O)CC(C)C)C(F)(F)c1ccc2sc(C(=O)N[C@H]3CCCC[C@H]4CC[C@@H](C(=O)N5CC(c6ccccc6)CC56CC6)N4C3=O)cc2c1 (some centres unmarked)"
  pIC50: "6.00 to 7.00"
- Compound: "COCCOC(=O)[C@H](C)NP(=O)(OCC(F)(F)F)[C@@H](F)c1ccc2sc(C(=O)N[C@H]3CCCC[C@H]4CC[C@@H](C(=O)N5CC(c6ccccc6)C(C#N)C56CC6)N4C3=O)cc2c1 (stereo in doubt)"
  pIC50: "> 7.00"

Fill in the blank: the reported pIC50 of COCC(=O)SCCOP(=O)(OCCSC(=O)COC)C(F)(F)c1ccc2sc(C(=O)N[C@H]3CCC[C@H]4CC[C@@H](C(=O)N5CC(c6cccnc6)C5)N4C3=O)cc2c1 is ____.
6.00 to 7.00

Numbers sourced from patent US20250215029A1.
